# assayed.system: T1, human PD-L1^ECD-hFc protein (human, UniProt Q9NZQ7 19-239, biotinylated in the PD-1 binding ELISA (Table 3) and in the Octet assay (Table 12))
# T1 construct: The plain and the biotinylated protein are kept as one molecule; also called PD-L1-hFc; Immunogen A; not shown: human IgG Fc fragment (hFc)
# T1 sequence (Q9NZQ7 19-239): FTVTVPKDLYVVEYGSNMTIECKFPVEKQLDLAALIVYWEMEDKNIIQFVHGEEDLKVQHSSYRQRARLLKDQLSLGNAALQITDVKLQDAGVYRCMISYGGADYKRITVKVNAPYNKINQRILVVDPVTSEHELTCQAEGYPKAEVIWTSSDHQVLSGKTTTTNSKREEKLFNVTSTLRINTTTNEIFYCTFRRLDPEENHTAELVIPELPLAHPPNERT
# assay.protocol: BLI Octet Red 96, biotinylated PD-L1-hFc on SA sensor
The entries below are paired with their reported Kd.

Record excerpt, results attached:
{"binder": "chimeric anti-PD-L1 antibody 127D2F3 (antibody, V domains shown, Purified from hybridoma of Harbour H2L2 mice: human variable regions, rat constant regions) VH: EVQLVESGGGLVQPGGSLRLSCVASGFTFSSYWMSWVRQAPGKGLEWVANIKQDGSEKYYVDSVKGRLTISRDNAKNSLYLQMKSLRAEDTAVYYCARDPIYSSYFDYWGQGILVTVSS VL: DIQMTQSPSSLSASVGDRVTITCRASQSISNYLNWYQQKPGKAPKLLIYAASSLQSGVPSRFSGSGSGTDFTLTISSLQPEDFAAYYCQQSYGIPFTFGPGTKVDIK", "result": "< 0.001 nM"}
{"binder": "chimeric anti-PD-L1 antibody 105C5D7 (antibody, V domains shown, Purified from hybridoma of Harbour H2L2 mice: human variable regions, rat constant regions) VH: EVQLVESGGGLVQPGGSLRLSCAASGFTFSSYWMSWVRQAPGKGLEWVANIKQDGNEKYYVDSVKGRFTISRDNAKNSLYLQMNSLRAEDTAVYYCARNIKWGDAFDIWGQGTMVTVSS VL: DIQMTQSPSSLSASVGDRVTITCRASQSISSYLNWYQQKPGKAPKLLIYAASSLQSGVPSRFSGSGSGTDFTLTISSLQPEDFAIYSCQQSYSIPLTFGGGTKVEIK", "result": "0.245 nM"}

Prompt: // Kd lookup, key: chimeric anti-PD-L1 antibody 78A11F6 (antibody, V domains shown, Purified from hybridoma of Harbour H2L2 mice: human variable regions, rat constant regions) VH: EVQLVESGGGLVQPGGSLRLSCAASGITFSSYWMSWVRQTPGKGLEWVANIKQDGSEKYYVKSVKGRFTISRDNAKNSLYLQMNSLRAEDTAVYYCVRDRAVPGTGAFDIWGQGTMVIVSS VL: DIQMTQSPSTLSASVGDRVTITCRASQSISNWLAWYQQKPGKAPKLLIYKASSLESGVPSRFSGSGSGTEFTLTISSLQPDDFATYYCQQYDSSLFTFGQGTKLEIK
Response: 0.148 nM
